Task for the reader: assign each of the following compounds its reported Percent Effect.
biological target: Shiga toxin 2 (Escherichia coli O157:H7) (UniProt P09385+P09386); experiment: E. coli 0.157:H7 Shiga Toxin SOP - stx2 screening assay; type: functional; set-up: scale not given: direction of the effect not stated beside the values; conditions: 30 µM
The response must be a number in % with no trailing unit.

Considering O=C(Nc1cc(F)ccc1OCC1CCCO1)N1CCCC1 (stereo unspecified) , its Percent Effect with Shiga toxin 2 (Escherichia coli O157:H7) (UniProt P09385+P09386) was recorded as 0.98

Considering `O=C([C@H]1CN(CCc2ccccc2)C[C@H]2OCC[C@@H]12)N1CCCO1` , its Percent Effect with Shiga toxin 2 (Escherichia coli O157:H7) (UniProt P09385+P09386) was recorded as -9.29

Considering `O=C(Nc1cccc(CN2CCOC2=O)c1)N1CCSCC1` , its Percent Effect with Shiga toxin 2 (Escherichia coli O157:H7) (UniProt P09385+P09386) was recorded as -52.5

Considering Cc1ccc(CC(=O)N2CCOC(c3nc(C)n[nH]3)C2)cn1 (stereo unspecified) , its Percent Effect with Shiga toxin 2 (Escherichia coli O157:H7) (UniProt P09385+P09386) was recorded as 0.301

Considering `Cc1nnc([C@H]2CC[C@@H]3[C@@H](CCN3Cc3c(C)noc3C)O2)o1` , its Percent Effect with Shiga toxin 2 (Escherichia coli O157:H7) (UniProt P09385+P09386) was recorded as -1.17

Considering `CCOc1ccc(Cl)c(C(=O)NCc2ccc(C(=O)NC)cc2)n1` , its Percent Effect with Shiga toxin 2 (Escherichia coli O157:H7) (UniProt P09385+P09386) was recorded as 13

Considering NC(=O)C1CN(Cc2c[nH]cn2)CCN(C2CCOCC2)C1 (stereo unspecified) , its Percent Effect with Shiga toxin 2 (Escherichia coli O157:H7) (UniProt P09385+P09386) was recorded as -0.548

Considering `Cn1cc(CN2CCn3cc(CNC(=O)c4cccn4C)nc3C2)cn1` , its Percent Effect with Shiga toxin 2 (Escherichia coli O157:H7) (UniProt P09385+P09386) was recorded as -19.5

Considering CC(O)CN1CCC(CNCc2c[nH]nc2C(C)(C)C)CC1 (stereo unspecified) , its Percent Effect with Shiga toxin 2 (Escherichia coli O157:H7) (UniProt P09385+P09386) was recorded as 14.9

Considering CCn1c(C(=O)N2CCN(CC(C)O)CC2)cc2ccccc21 (stereo unspecified) , its Percent Effect with Shiga toxin 2 (Escherichia coli O157:H7) (UniProt P09385+P09386) was recorded as -48.2

Considering `O=C(NCCCN1CCCC1)c1n[nH]c(=O)c2ccccc12` , its Percent Effect with Shiga toxin 2 (Escherichia coli O157:H7) (UniProt P09385+P09386) was recorded as -6.83
